- METHOD: first dissolution test in DMSO or water
- CONDITION_NOTES: DMSO, organic solvent or mixture, thermodynamic from solid
MEASURED_ENDPOINT: solubility (mg/mL)

Cc1ccc(S(=O)(=O)N2CC(O)C2)cc1	832

P = Cc1ccc(S(=O)(=O)N2CC(C(=O)NO)C2)cc1
Q = Cc1ccc(S(=O)(=O)NC2COC2)cc1
R = Cc1ccc(S(=O)(=O)NC2CCN(Cc3ccccc3)CC2)cc1.Cl [PTSA052i]
S = Cc1ccc(S(=O)(=O)N2CCC(CN)CC2)cc1.Cl
In this exercise, place the 4 molecules in ascending sequence of their recorded solubility. Put the labels in the order asked and list them. R, S, P, Q
(R: 143 mg/mL, S: 229 mg/mL, P: 466 mg/mL, Q: 762 mg/mL)

* * *

- Test system: human liver cancer cell lines Hep3B
- METHOD: SRB growth inhibition of liver cancer cells
- Assay type: cell-based
- CONDITION_NOTES: Homo sapiens, Hep3B, 48 h, derivative dissolved in DMSO; 48 hours; SRB; read-out: IC50 of Hep3B in DMSO
MEASURED_ENDPOINT: IC50 (mM)

Record excerpt, results attached:
Cc1ccc(S(=O)(=O)N2CC(C(=O)NN)C2)cc1 [PTSA071]	1.02
Cc1ccc(S(=O)(=O)NC2COC2)cc1 [PTSA040]	0.329
Cc1ccc(S(=O)(=O)NC(CO)CO)cc1 [PTSA029]	3.05

P = Cc1ccc(S(=O)(=O)N2CCC[C@H]2CO)cc1 [PTSA033]
Q = Cc1ccc(S(=O)(=O)NC2CCNCC2)cc1.Cl [PTSA052]
So which one has the bigger IC50 here, P or Q ? Give the label of your selection. P

A = Cc1ccc(S(=O)(=O)N2CCNCC2)cc1 [PTSA038]
B = Cc1ccc(S(=O)(=O)NCC(O)CO)cc1 (centres unmarked) [PTSA028]
Problem: Given the entries A and B , determine which has the lower reported IC50. Give the label of your selection. A
(A: 1.57 mM, B: 5.36 mM)

1 = COC(=O)NS(=O)(=O)c1ccc(C)cc1 [PTSA011]
2 = Cc1ccc(S(=O)(=O)N2CC(CN)C2)cc1.Cl [PTSA068]
So which one has the bigger IC50 here, 1 or 2 ? Give the label of your selection. 1

* * *

- METHOD: second dissolution test in DMSO or water
- Format: physicochemical
- CONDITION_NOTES: second dissolution test; 0.1 g powder; water
- Protocol: A second dissolution test was performed for the undissolved p-TSA derivatives. Each of 100 mg p-TSA derivatives powder was placed in each of the scintillation vial, followed by adding 500 μL DMSO or 500 μL water and shaking for 30 seconds for dissolution observation.
MEASURED_ENDPOINT: Total volume of water for dissolving the p-TSA derivatives

Cc1ccc(S(=O)(=O)N2CC(=NNC(=O)C3CN(S(=O)(=O)c4ccc(C)cc4)C3)C2)cc1	insoluble in 20 mL
Cc1ccc(S(=O)(=O)NCCF)cc1	insoluble in 20 mL
CC(=O)NS(=O)(=O)c1ccc(C)cc1	5.25 mL
Cc1ccc(S(=O)(=O)N2CCC(O)CC2)cc1	insoluble in 20 mL

* * *

- Tested on: human liver cancer cell lines Hep3B
- METHOD: SRB growth inhibition of liver cancer cells
- Assay type: cell-based
- CONDITION_NOTES: Homo sapiens, Hep3B, 48 h, derivative dissolved in DMSO; 48 hours; SRB; read-out: IC50 of Hep3B in DMSO
MEASURED_ENDPOINT: IC50 (mM)

Record excerpt, results attached:
Cc1ccc(S(=O)(=O)NCC2(CO)COC2)cc1	3.74
Cc1ccc(S(=O)(=O)NCC2CCNCC2)cc1.Cl	0.935
Cc1ccc(S(=O)(=O)NCCO)cc1	2.65
Cc1ccc(S(=O)(=O)N2CC[C@@H](O)C2)cc1	2.28

P = Cc1ccc(S(=O)(=O)NCCN(C)C)cc1.Cl
Q = Cc1ccc(S(=O)(=O)NC(C)(CO)CO)cc1
Problem: Given the entries P and Q , determine which has the lower reported IC50. Give the label of your selection. P

P = Cc1ccc(S(=O)(=O)NCCCO)cc1
Q = Cc1ccc(S(=O)(=O)N2CC(F)C2)cc1
R = Cc1ccc(S(=O)(=O)N2CC(O)C2)cc1
S = Cc1ccc(S(=O)(=O)NC2CCN(Cc3ccccc3)CC2)cc1.Cl [PTSA052i]
T = Cc1ccc(S(=O)(=O)NCCOCCO)cc1
In this exercise, place the 5 compounds in ascending sequence of their recorded IC50. Put the labels in the order asked and list them. S, R, Q, P, T
(S: 0.137 mM, R: 0.265 mM, Q: 1.45 mM, P: 2.81 mM, T: 4.72 mM)

A = Cc1ccc(S(=O)(=O)N2CC(CO)C2)cc1
B = Cc1ccc(S(=O)(=O)N2CCCC2CO)cc1 (centres unmarked)
C = Cc1ccc(S(=O)(=O)N2CC(C(=O)NO)C2)cc1
In this exercise, place the 3 compounds in ascending sequence of their recorded IC50. Put the labels in the order asked and list them. C, B, A

a = COCCCNS(=O)(=O)c1ccc(C)cc1
b = Cc1ccc(S(=O)(=O)NC[C@H](C)O)cc1
Problem: Given the entries a and b , determine which has the lower reported IC50. Give the label of your selection. a

P = COCCNS(=O)(=O)c1ccc(C)cc1
Q = Cc1ccc(S(=O)(=O)N2CC(C#N)C2)cc1
Problem: Given the entries P and Q , determine which has the lower reported IC50. Give the label of your selection. Q

* * *

- METHOD: first dissolution test in DMSO or water
- CONDITION_NOTES: first dissolution test; amount for a 3M solution in 0.5 mL; water, up to 15000 μL
MEASURED_ENDPOINT: Total volume of water for dissolving the p-TSA derivatives

Record excerpt, results attached:
COCCNS(=O)(=O)c1ccc(C)cc1	insoluble in 15000 μL
Cc1ccc(S(=O)(=O)N2CCNCC2)cc1	insoluble in 15000 μL
Cc1ccc(S(=O)(=O)N2CCC(N)CC2)cc1.Cl	2500 µL
COC(=O)NS(=O)(=O)c1ccc(C)cc1 [PTSA011]	insoluble in 15000 μL
Cc1ccc(S(=O)(=O)N2CC(=NO)C2)cc1	insoluble in 15000 μL
Cc1ccc(S(=O)(=O)NCC2CCNCC2)cc1.Cl	insoluble in 15000 μL

Would you mind telling me what Total volume of water for dissolving the p-TSA derivatives value was observed for Cc1ccc(S(=O)(=O)NC(=O)NS(=O)(=O)c2ccc(C)cc2)cc1 [PTSA017] ? insoluble in 15000 μL

Would you mind telling me what Total volume of water for dissolving the p-TSA derivatives value was observed for Cc1ccc(S(=O)(=O)N2CCCC2C(=O)O)cc1 (stereo not drawn) ? 2500 µL

Would you mind telling me what Total volume of water for dissolving the p-TSA derivatives value was observed for CC(=O)NS(=O)(=O)c1ccc(C)cc1 [PTSA001] ? insoluble in 15000 μL

* * *

Entries and their measured IC50 follow.
- Test system: human non-small-cell lung cancer cell lines H460
- METHOD: SRB growth inhibition of lung cancer cells
- Format: cell-based
- CONDITION_NOTES: Homo sapiens, NCI-H460, 48 h, derivative dissolved in water; 48 hours; SRB; read-out: IC50 of H460 in water

Cc1ccc(S(=O)(=O)NCCO)cc1	> 1000 µM
Cc1ccc(S(=O)(=O)N2CCCC2C(=O)O)cc1 (stereo not drawn)	> 3000 µM
CC(=O)NS(=O)(=O)c1ccc(C)cc1	> 6030 µM

Would you mind telling me what IC50 value was observed for `Cc1ccc(S(=O)(=O)NCCS(=O)(=O)O)cc1` ? > 3000 µM

Would you mind telling me what IC50 value was observed for `Cc1ccc(S(=O)(=O)NC(=O)NS(=O)(=O)c2ccc(C)cc2)cc1` ? > 3000 µM

Would you mind telling me what IC50 value was observed for `Cc1ccc(S(=O)(=O)NC(CO)(CO)CO)cc1` ? > 1000 µM

* * *

- METHOD: first dissolution test in DMSO or water
- CONDITION_NOTES: first dissolution test; amount for a 3M solution in 0.5 mL; DMSO, up to 15000 μL
MEASURED_ENDPOINT: Total volume of DMSO for dissolving the p-TSA derivatives (µL)

Record excerpt, results attached:
Cc1ccc(S(=O)(=O)N2CC(O)C2)cc1 [PTSA037]	605
CCOC(=O)NS(=O)(=O)c1ccc(C)cc1 [PTSA014]	610

A = Cc1ccc(S(=O)(=O)NCC(=O)O)cc1 [PTSA044]
B = Cc1ccc(S(=O)(=O)N2CC(C#N)C2)cc1 [PTSA063]
Problem: Given the entries A and B , determine which has the lower reported Total volume of DMSO for dissolving the p-TSA derivatives. Give the label of your selection. A
(A: 600 µL, B: 900 µL)
